Structures can show the parent of a compound that is named as a salt.
experimentalEndpoint: pKi
Remember, pKi is on a log scale: it is -log10 of the molar concentration.

Form: Entry = Cc1nnn([C@H]2C[C@@H](n3cnc4c(NCC(c5ccccc5)c5ccccc5)nc(N[C@@H]5CCNC5)nc43)[C@H](O)[C@@H]2O)n1 [Example 7, trifluoroacetate] | System = adenosine A2A receptor (Homo sapiens) | pKi = ____
7.37
